Tested on: K562-VP16
Experiment: Inhibition of cell growth, Table VI
Assay type: cell-based, human
Settings: Homo sapiens, (C) continuous exposure
readout_kind: EC50 (µM)
Report as a plain number; the unit µM is understood.

Please report the measured EC50 for `Nc1nc(O)c2ncn(COC(CO)CO)c2n1`
250

Please report the measured EC50 for `Nc1ccn([C@H]2CC[C@@H](CO)O2)c(=O)n1`
100

----------
Tested on: K562-VP16
Assay: Inhibition of cell growth, Table VI
Format: cell-based, human
Conditions: (C) continuous exposure
So I've got a bunch of compounds here, and I need their pEC50 values.
Expect pEC50 as a plain number equal to -log10 of the molar concentration.

Please report the measured pEC50 for `Nc1ncnc2c1ncn2[C@@H]1O[C@H](CO)C[C@H]1O`
3.82

Please report the measured pEC50 for `Cc1cn([C@H]2C[C@H](N=[N+]=[N-])[C@@H](CO)O2)c(=O)[nH]c1=O`
3.70

Please report the measured pEC50 for `Nc1ncnc2c1ncn2[C@H]1CC[C@@H](CO)O1`
4.46

Please report the measured pEC50 for `Nc1nc2c(ncn2[C@H]2CC[C@@H](CO)O2)c(=O)[nH]1`
3.77

Please report the measured pEC50 for `NC(=O)c1ncn([C@@H]2O[C@H](CO)[C@@H](O)[C@H]2O)n1`
4.26

Please report the measured pEC50 for NC(=O)NO [NU, hydroxyurea]
4.40

Please report the measured pEC50 for `Cc1cn([C@H]2CC[C@@H](CO)O2)c(=O)[nH]c1=O`
3.70

----------
System: A2780S
Assay: Inhibition of cell growth (cells counted on Coulter Counter after six days)
Assay type: cell-based, human
Conditions: treatment time 1 hr; proliferation during 6 days; mean + SD; read-out: EC50 A2780S
readout_kind: EC50 (µM)
Report as a plain number; the unit µM is understood.

Please report the measured EC50 for N.N.[Cl][Pt][Cl] [Cisplatin, cisplatin]
7

----------
Tested on: K562-VP16
Test: Inhibition of cell growth, Table VI
Assay type: cell-based, human
Conditions: (1h) exposure
readout_kind: EC50 (µM)
Report as a plain number; the unit µM is understood.

Please report the measured EC50 for N.N.[Cl][Pt][Cl] [Cisplatin, cisplatin]
15

----------
Tested on: K562S
Assay: Inhibition of cell growth, Table VI
Assay type: cell-based, human
Settings: (C) continuous exposure
pEC50: −log10 of the molar value.
The threshold is inclusive: pEC50 of exactly 4 counts as fulfilled; values below receive not fulfilled.

Item NC(=O)NO [NU, hydroxyurea] with pEC50 of 4 or above?
fulfilled

Item Nc1ncnc2c1ncn2[C@H]1CC[C@@H](CO)O1 [ddA, 2′3′-dideoxyadenosine] with pEC50 of 4 or above?
fulfilled

Item Cc1cn([C@H]2CC[C@@H](CO)O2)c(=O)[nH]c1=O [ddT, 2′,3′-dideoxythymidine] with pEC50 of 4 or above?
not fulfilled

Item NC(=O)c1ncn([C@@H]2O[C@H](CO)[C@@H](O)[C@H]2O)n1 [Ribovirin] with pEC50 of 4 or above?
fulfilled

Item Nc1nc2c(ncn2[C@H]2CC[C@@H](CO)O2)c(=O)[nH]1 [ddG, 2′,3′-dideoxyquanosene] with pEC50 of 4 or above?
not fulfilled

----------
Test system: HCT8DDP
Assay: Inhibition of cell growth (cells counted on Coulter Counter after six days)
Assay type: cell-based, human
Settings: HCT8-DDP; (2h) exposure; read-out: EC50
readout_kind: EC50 (µM)
Report as a plain number; the unit µM is understood.

Please report the measured EC50 for `Nc1ccn([C@@H]2O[C@H](CO)[C@@H](O)[C@@H]2O)c(=O)n1`
79
